assay: Solubility in water, buffers and bio-relevant media (37° C., 24 h shaking, HPLC); type: physicochemical; settings: FaSSIF, 37° C., 24 h
Assign labels as follows, please: YES for Solubility below 40 µg/mL; NO for Solubility equal to or exceeding 40 µg/mL.

Please review the entries below; each comes with its answer.
molecule	class
CCc1nc2ccccn2c1C(=O)c1cc(Br)c(O)c(C#N)c1 [Form 2]	NO
CCc1nc2ccccn2c1C(=O)c1cc(Br)c(O)c(C#N)c1 [Form 5D]	NO
CCc1nc2ccccn2c1C(=O)c1cc(Br)c(O)c(C#N)c1 [Form 1]	YES
CCc1nc2ccccn2c1C(=O)c1cc(Br)c(O)c(C#N)c1 [Form 8]	YES

Dear colleague, could you confirm whether Solubility of CCc1nc2ccccn2c1C(=O)c1cc(Br)c(O)c(C#N)c1 [Form 11] falls below 40 µg/mL? Thanks.
YES

Dear colleague, could you confirm whether Solubility of CCc1nc2ccccn2c1C(=O)c1cc(Br)c(O)c(C#N)c1 [Form 6] falls below 40 µg/mL? Thanks.
NO

----------
assay: Single-dose pharmacokinetic study, oral and intravenous, in SD rats; format: in vivo, SD rat; settings: male, SD, rat, plasma, iv, 1 mg/kg, male SD rats, intravenous 1 mg/kg, individual rats 501/502/503 (c1/c2/c3); read-out: AUCINF—pred
quantity_measured: AUC(0-inf) (ng·h/mL)
Answer in ng·h/mL, number only, no unit symbol.

Item: CCc1nc2ccccn2c1C(=O)c1cc(Br)c(O)c(C#N)c1 [Form 1] | AUC(0-inf): 18500

----------
test: Single-dose pharmacokinetic study, oral and intravenous, in SD rats; type: in vivo, SD rat; conditions: male, SD, rat, plasma, iv, 5 mg/kg, male SD rats, 5 mg/kg (intravenous), Average
quantity_measured: MRT last (h)
Answer in h, number only, no unit symbol.

Item: CCc1nc2ccccn2c1C(=O)c1cc(Br)c(O)c(C#N)c1 [Form 1] | MRT last: 3.44

----------
assay: Single-dose pharmacokinetic study, oral and intravenous, in SD rats; assay type: in vivo, SD rat; details: male, SD, rat, plasma, iv, 1 mg/kg, male SD rats, intravenous 1 mg/kg, individual rats 501/502/503 (c1/c2/c3)
quantity_measured: AUC(0-t) (ng·h/mL)
Answer in ng·h/mL, number only, no unit symbol.

Item: CCc1nc2ccccn2c1C(=O)c1cc(Br)c(O)c(C#N)c1 [Form 1] | AUC(0-t): 18500

----------
assay: Single-dose pharmacokinetic study, oral and intravenous, in SD rats; type: in vivo, SD rat; conditions: male, SD, rat, plasma, iv, 5 mg/kg, male SD rats, 5 mg/kg (intravenous), individual rats 101/102/103 (c1/c2/c3)
quantity_measured: Cmax (µg/mL)
Answer in µg/mL, number only, no unit symbol.

Item: CCc1nc2ccccn2c1C(=O)c1cc(Br)c(O)c(C#N)c1 [Form 1] | Cmax: 55.7

----------
Assay: Single-dose pharmacokinetic study, oral and intravenous, in SD rats
Format: in vivo, SD rat
Settings: male, SD, rat, plasma, po, 10 mg/kg, male SD rats, oral 10 mg/kg, individual rats 401/402/403 (c1/c2/c3); read-out: Vz—F—pred
Procedure: Form 1, Form 2, and Form 5D were each evaluated via a single-dose pharmacokinetic study following oral and intravenous administration in SD rats. […] Form 1, Form 2, and Form 5Dwere evaluated by rat pharmacokinetics study. […] The computer program Microsoft Office Excel 2007 (Microsoft, USA) was used to process data and graphics. The pharmacokinetic parameters were calculated by WinNolin 6.4 software.
quantity_measured: Vd/F (L/kg)
Answer in L/kg, number only, no unit symbol.

Item: CCc1nc2ccccn2c1C(=O)c1cc(Br)c(O)c(C#N)c1 [Form 5D] | Vd/F: 0.53

----------
assay: Single-dose pharmacokinetic study, oral and intravenous, in SD rats; format: in vivo, SD rat; settings: male, SD, rat, plasma, po, 10 mg/kg, male SD rats, oral 10 mg/kg, Average (Table 10); read-out: Vz—F—pred
quantity_measured: Vd/F
Dear colleague, please send the value followed by its unit.

Item: CCc1nc2ccccn2c1C(=O)c1cc(Br)c(O)c(C#N)c1 [Form 2] | Vd/F: 0.52 L/kg

----------
assay: Single-dose pharmacokinetic study, oral and intravenous, in SD rats; type: in vivo, SD rat; conditions: male, SD, rat, plasma, po, 10 mg/kg, male SD rats, oral 10 mg/kg, individual rats 401/402/403 (c1/c2/c3); read-out: AUCINF—pred
quantity_measured: AUC(0-inf) (ng·h/mL)
Answer in ng·h/mL, number only, no unit symbol.

Item: CCc1nc2ccccn2c1C(=O)c1cc(Br)c(O)c(C#N)c1 [Form 5D] | AUC(0-inf): 96600

----------
assay: Visual solubility of Form 1 in common solvents; format: physicochemical; settings: tetrahydrofuran (THF), organic solvent or mixture, thermodynamic from solid
quantity_measured: Solubility

Item: CCc1nc2ccccn2c1C(=O)c1cc(Br)c(O)c(C#N)c1 [Form 1] | Solubility: ~3000 µg/mL

----------
experiment: Single-dose pharmacokinetic study, oral and intravenous, in SD rats; type: in vivo, SD rat; details: male, SD, rat, plasma, po, 10 mg/kg, male SD rats, oral 10 mg/kg, Average (Table 11); read-out: Vz—F—pred
quantity_measured: Vd/F (L/kg)
Answer in L/kg, number only, no unit symbol.

Item: CCc1nc2ccccn2c1C(=O)c1cc(Br)c(O)c(C#N)c1 [Form 5D] | Vd/F: 0.53

----------
assay: Visual solubility of Form 1 in common solvents; format: physicochemical; conditions: methanol:water 3:1, organic solvent or mixture, thermodynamic from solid, Methanol:water = 3:1
quantity_measured: Solubility

Item: CCc1nc2ccccn2c1C(=O)c1cc(Br)c(O)c(C#N)c1 [Form 1] | Solubility: < 1000 µg/mL

----------
assay: Single-dose pharmacokinetic study, oral and intravenous, in SD rats; assay type: in vivo, SD rat; details: male, SD, rat, plasma, iv, 1 mg/kg, male SD rats, intravenous 1 mg/kg, Average; read-out: HL_Lambda_z (T1/2) (converted)
quantity_measured: half-life (h)
Answer in h, number only, no unit symbol.

Item: CCc1nc2ccccn2c1C(=O)c1cc(Br)c(O)c(C#N)c1 [Form 1] | half-life: 2.9

----------
test: Single-dose pharmacokinetic study, oral and intravenous, in SD rats; format: in vivo, SD rat; conditions: male, SD, rat, plasma, po, 10 mg/kg, male SD rats, oral 10 mg/kg, individual rats 201/202/203 (c1/c2/c3); read-out: Vz—F—pred
quantity_measured: Vd/F (L/kg)
Answer in L/kg, number only, no unit symbol.

Item: CCc1nc2ccccn2c1C(=O)c1cc(Br)c(O)c(C#N)c1 [Form 1] | Vd/F: 0.63

----------
Test: Single-dose pharmacokinetic study, oral and intravenous, in SD rats
Type: in vivo, SD rat
Settings: male, SD, rat, plasma, iv, 5 mg/kg, male SD rats, 5 mg/kg (intravenous), individual rats 101/102/103 (c1/c2/c3); read-out: AUCINF—pred
Description: Form 1, Form 2, and Form 5D were each evaluated via a single-dose pharmacokinetic study following oral and intravenous administration in SD rats. […] Form 1, Form 2, and Form 5Dwere evaluated by rat pharmacokinetics study. […] The computer program Microsoft Office Excel 2007 (Microsoft, USA) was used to process data and graphics. The pharmacokinetic parameters were calculated by WinNolin 6.4 software.
quantity_measured: AUC(0-inf) (ng·h/mL)
Answer in ng·h/mL, number only, no unit symbol.

Item: CCc1nc2ccccn2c1C(=O)c1cc(Br)c(O)c(C#N)c1 [Form 1] | AUC(0-inf): 91100

----------
experiment: Single-dose pharmacokinetic study, oral and intravenous, in SD rats; assay type: in vivo, SD rat; conditions: male, SD, rat, plasma, po, 10 mg/kg, male SD rats, oral 10 mg/kg, Average (Table 10)
quantity_measured: Cmax (ng/mL)
Answer in ng/mL, number only, no unit symbol.

Item: CCc1nc2ccccn2c1C(=O)c1cc(Br)c(O)c(C#N)c1 [Form 2] | Cmax: 7950

----------
test: Visual solubility of Form 1 in common solvents; format: physicochemical; settings: methyl ethyl ketone (MEK), organic solvent or mixture, thermodynamic from solid
quantity_measured: Solubility

Item: CCc1nc2ccccn2c1C(=O)c1cc(Br)c(O)c(C#N)c1 [Form 1] | Solubility: < 1000 µg/mL

----------
assay: Single-dose pharmacokinetic study, oral and intravenous, in SD rats; assay type: in vivo, SD rat; conditions: male, SD, rat, plasma, po, 10 mg/kg, male SD rats, oral 10 mg/kg, Average (Table 9); read-out: AUCINF—pred
quantity_measured: AUC(0-inf) (ng·h/mL)
Answer in ng·h/mL, number only, no unit symbol.

Item: CCc1nc2ccccn2c1C(=O)c1cc(Br)c(O)c(C#N)c1 [Form 1] | AUC(0-inf): 76200

----------
Experiment: Single-dose pharmacokinetic study, oral and intravenous, in SD rats
Format: in vivo, SD rat
Conditions: male, SD, rat, plasma, iv, 1 mg/kg, male SD rats, intravenous 1 mg/kg, individual rats 501/502/503 (c1/c2/c3); read-out: Cl—pred (converted)
Protocol: Form 1, Form 2, and Form 5D were each evaluated via a single-dose pharmacokinetic study following oral and intravenous administration in SD rats. […] Form 1, Form 2, and Form 5Dwere evaluated by rat pharmacokinetics study. […] The computer program Microsoft Office Excel 2007 (Microsoft, USA) was used to process data and graphics. The pharmacokinetic parameters were calculated by WinNolin 6.4 software.
quantity_measured: clearance (mL/min/kg)
Answer in mL/min/kg, number only, no unit symbol.

Item: CCc1nc2ccccn2c1C(=O)c1cc(Br)c(O)c(C#N)c1 [Form 1] | clearance: 0.833

The reported measurements were obtained from patent US20250368639A1.
